Test: Tmax in Sprague-Dawley rat at 5 mg/kg, po by LC-MS/MS method
Format: ADME, organism-based
Set-up: dose 5 mg/kg, route oral
Details: in vivo

{"STRUCTURE": "O=C(O)CNC(=O)CCc1cc(Cl)c(Oc2ccncc2C(=O)N2CCN(C3CC3)c3ccccc32)cc1Cl", "Tmax": "26.4 min"}

====

Assay: AUC (0 to infinity) in Sprague-Dawley rat at 5 mg/kg, po by LC-MS/MS method
Assay type: ADME, organism-based
Set-up: time infinity, dose 5 mg/kg, route oral
Settings: plasma
MEASUREMENT_LABEL: AUC(0-inf) (ng·h/mL)

{"STRUCTURE": "O=C(O)CNC(=O)CCc1cc(Cl)c(Oc2ccncc2C(=O)N2CCN(C3CC3)c3ccccc32)cc1Cl", "REPORTED": 39.7}
